studySystem: CYP2C9 (Homo sapiens)
Sequence (P11712 whole entry): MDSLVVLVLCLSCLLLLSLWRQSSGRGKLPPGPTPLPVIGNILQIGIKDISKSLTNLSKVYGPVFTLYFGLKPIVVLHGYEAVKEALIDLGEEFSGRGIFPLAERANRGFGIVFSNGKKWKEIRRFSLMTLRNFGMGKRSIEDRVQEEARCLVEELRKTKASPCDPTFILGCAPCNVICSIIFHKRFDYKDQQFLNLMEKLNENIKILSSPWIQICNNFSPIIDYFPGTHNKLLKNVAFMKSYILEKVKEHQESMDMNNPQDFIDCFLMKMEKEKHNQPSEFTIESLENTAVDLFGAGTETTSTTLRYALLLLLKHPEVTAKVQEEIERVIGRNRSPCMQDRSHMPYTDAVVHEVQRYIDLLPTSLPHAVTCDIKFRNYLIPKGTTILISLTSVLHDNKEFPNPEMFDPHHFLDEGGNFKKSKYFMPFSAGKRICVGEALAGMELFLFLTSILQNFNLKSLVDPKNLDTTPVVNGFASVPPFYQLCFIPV
assayName: Inhibition of CYP2C9 in human liver microsomes using tolbutamide as substrate at 10 uM preincubated for 5 min followed by NADPH addition measured after 120 mins by LC-MS/MS analysis relative to control
Format: ADME, Microsome
conditionSet: probe tolbutamide, time 125 min
readoutKind: inhibition at 2 h, 10 µM (%)

* N#Cc1cccc(Oc2nc(-c3cccc(C#N)c3)ncc2C(=O)O)c1 | 26.3
* N#Cc1cccc(-c2nc(C(F)F)c(C(=O)O)n2OCc2csc(N)n2)c1 | 9.7

----------
Form field: remaining at 3 h, 1 µM (one value per entry).
assayName: Metabolic stability in human liver microsomes assessed as parent compound remaining at 1 uM measured after 3 hrs in presence of NADPH by LC-MS/MS analysis
Format: ADME, Microsome
conditionSet: read-out: Stability
readoutKind: remaining at 3 h, 1 µM (%)

- N#Cc1cccc(Oc2nc(-c3cccc(C#N)c3)ncc2C(=O)O)c1: 76.9
- N#Cc1cccc(-c2nc(C(F)F)c(C(=O)O)n2OCc2csc(N)n2)c1: 92.5

----------
System: Rattus norvegicus
assayName: Anti-platelet aggregation in Sprague-Dawley rat assessed as inhibition of ADP-induced platelet aggregation at 10 mg/kg, po measured for 15 mins in presence of 5 uM ADP by cell counter analysis relative to control
Format: functional
conditionSet: 0.25 h
readoutKind: inhibition in vivo at 10 mg/kg (%)

- N#Cc1cccc(Oc2nc(-c3cccc(C#N)c3)ncc2C(=O)O)c1: 47.6
- N#Cc1cccc(-c2nc(C(F)F)c(C(=O)O)n2OCc2csc(N)n2)c1: 43.2
- Cc1nc(-c2cccc(C#N)c2)n(OCc2ccc(C#N)cc2)c1C(=O)O: 35.1
- CC(C)(C)c1ccccc1Oc1ncccc1NC(=O)Nc1ccc(OC(F)(F)F)cc1: 64.6
- CCCSc1nc(N[C@@H]2C[C@H]2c2ccc(F)c(F)c2)c2nnn([C@@H]3C[C@H](OCCO)[C@@H](O)[C@H]3O)c2n1: 73.7

----------
assayName: Clearance male Sprague-Dawley rat at 10 mg/kg, po measured up to 24 hrs by LC-MS/MS analysis
Type: ADME, organism-based
conditionSet: in vivo
readoutKind: CL/F (mL/min/kg)

- N#Cc1cccc(Oc2nc(-c3cccc(C#N)c3)ncc2C(=O)O)c1: 169
- N#Cc1cccc(-c2nc(C(F)F)c(C(=O)O)n2OCc2csc(N)n2)c1: 4630
